# System: DU-145
# experimental-details: Growth inhibition of human DU145 cells after 96 hrs by trypan blue exclusion assay
# Format: functional
# test-settings: DU-145, 96 h
Below: a set of entries, each annotated with reported GI50.
value-type: GI50

line-notation	value-type	endpoint-value
O=C(/C(=C\c1c(O)cc(O)cc1O)Sc1ccccc1Br)c1ccc(Cl)cc1	GI50	> 100 µM
COc1ccc(C(=O)C(=Cc2ccc(Br)cc2)S(=O)(=O)Cc2ccc(Br)cc2)cc1	GI50	1 µM
CN(C)c1ccc(/C=C(\C(=O)c2ccc(C(=O)O)cc2)S(=O)(=O)Cc2ccc(Cl)cc2)cc1	GI50	> 100 µM
COc1cc(OC)c(C=C(C(=O)c2ccc(Cl)cc2)S(=O)(=O)Cc2ccccc2Cl)c(OC)c1	GI50	> 100 µM
O=C(/C(=C\c1ccc(O)cc1O)S(=O)(=O)c1ccccc1Br)c1ccc(Br)cc1	GI50	> 100 µM
